Source listed as the supplement of paper PMC6555819.

test system: RARb:RXRa (NR concentration 270 nM, RXRa partner concentration 90 nM); test: PBM binding z-score (relative to random genomic background probes); higher = stronger binding; sequences stand for … in GC…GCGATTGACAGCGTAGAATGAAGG
Would you mind telling me the reported PBM binding z-score of each entry?
Field format: numeric only.

Can you look up the measured PBM binding z-score of `AGAAAGAGGGCACGCTGAGTTGATAGCAGAGTAG` for me?
2.74

Can you look up the measured PBM binding z-score of `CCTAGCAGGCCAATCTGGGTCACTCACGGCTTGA` for me?
1.56

Can you look up the measured PBM binding z-score of `CCAGACAGGTGAAAAGTAACTCAGTCTGGTACGC` for me?
0.36

Can you look up the measured PBM binding z-score of `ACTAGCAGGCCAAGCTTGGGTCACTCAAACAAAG` for me?
1.77

Can you look up the measured PBM binding z-score of `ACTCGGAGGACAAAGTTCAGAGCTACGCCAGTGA` for me?
2.97

Can you look up the measured PBM binding z-score of `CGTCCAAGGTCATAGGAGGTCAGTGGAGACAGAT` for me?
5.39

Can you look up the measured PBM binding z-score of `CGAACTAGATCATCCAGGACAGTGAATACATTGA` for me?
-0.2

Can you look up the measured PBM binding z-score of `ACAGACAGGTGAGTGAAGGTAACGCAGCTGGACG` for me?
0.702

Can you look up the measured PBM binding z-score of `CCTTACGGCTCACTCCAGGTTATAGCATCGGAGT` for me?
0.00286

Can you look up the measured PBM binding z-score of `TAGCCTAGGTCATTCAGGGGCCATTATAGAAAGC` for me?
3.98

Can you look up the measured PBM binding z-score of `ATCGAAAGTTCGACGAGGTGAGTATACACCGTTT` for me?
2.32

Can you look up the measured PBM binding z-score of `TCTTGTAGATCAATAGAGGTTAGGAAAGTGCGCT` for me?
0.535

Can you look up the measured PBM binding z-score of `CGTCCAAGGTCAATGCTAGGTCAGGGAAAGCATT` for me?
5.31

Can you look up the measured PBM binding z-score of `TCTATTAGTTGTTTAGGGCAACCGAAACAGCGGA` for me?
1.13

Can you look up the measured PBM binding z-score of `ATCTCCAGGTAACAAGTTCAGTGAAAGAGAGGAC` for me?
1.76

Can you look up the measured PBM binding z-score of `ATCGAAAGGTCGAAGGTGAGTATACCCACCCGAA` for me?
3.82

Can you look up the measured PBM binding z-score of `TCGAGTAGGTTACCAATGGGGCCTTCAGCTTTCT` for me?
0.653

Can you look up the measured PBM binding z-score of `CCTGCTAGGTCATGGTCAGCTGATCTACAGTATG` for me?
4.21

Can you look up the measured PBM binding z-score of `CAAACTAGGTCAAAGGTAAAAGTCGAGCCAACCA` for me?
4.21

Can you look up the measured PBM binding z-score of `TATACAGGGTGAAAGGCCAGAGTACGAATGTCGA` for me?
1.68

Can you look up the measured PBM binding z-score of `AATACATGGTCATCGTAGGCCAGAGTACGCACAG` for me?
1.14

Can you look up the measured PBM binding z-score of `TTTATTAGTTGATTAGGGCAACCGAAACAGCGGA` for me?
1.24

Can you look up the measured PBM binding z-score of `TCGAGTAGGTTACCAACGGGGCATTCAGCTTTCT` for me?
0.936

Can you look up the measured PBM binding z-score of `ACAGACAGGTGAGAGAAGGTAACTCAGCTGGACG` for me?
0.565

Can you look up the measured PBM binding z-score of `CCGAATGGGGCAGAAAGGTTACCATACCATCCGG` for me?
1.89

Can you look up the measured PBM binding z-score of `ATTCAAAGTTCATCTAGGTAACGTAAGATATGCT` for me?
4.93

Can you look up the measured PBM binding z-score of `GCGGCTAGGTCAGGTTGGTCAGCTAACGGGTACG` for me?
3.26

Can you look up the measured PBM binding z-score of `TCATATAGGTAATACAGGTCAAAGTCGGCATCTA` for me?
2.49

Can you look up the measured PBM binding z-score of `TGAATGAGGTTAAAGATCAGCGAACGTGGCGTCG` for me?
1.88

Can you look up the measured PBM binding z-score of `TGAATGAGTTTAAAGATCAGGGAACGTGGCGTCG` for me?
0.682

Can you look up the measured PBM binding z-score of `GCTTGCGGGTCAAAGGTTATAGCATGAATAGAAT` for me?
4.53

Can you look up the measured PBM binding z-score of `TCAGACAAGTGAAGGTAACTCAGGTACGCAGTCG` for me?
0.197

Can you look up the measured PBM binding z-score of `ATATGTAGGGTAAGGGTCATTCAGGTTGGTTCGC` for me?
3.53

Can you look up the measured PBM binding z-score of `CAAACTAGGTCTCAGAGGTCAAAGTCCGTGCGTA` for me?
3.88

Can you look up the measured PBM binding z-score of `ATAGACAGGTGATGAAGGTAACTCAGGCTATCAT` for me?
0.316

Can you look up the measured PBM binding z-score of `ACTAGCAGGCCAAGTTTGGGTCTCTCAAACAAAG` for me?
0.382

Can you look up the measured PBM binding z-score of `TCTAGTTGGTCACGGAGGTCACATACGACGGGTA` for me?
3.84
